Value source: ChEMBL document CHEMBL5725933

- test.target: UniProtKB P00746
- Sequence (P00746 whole entry): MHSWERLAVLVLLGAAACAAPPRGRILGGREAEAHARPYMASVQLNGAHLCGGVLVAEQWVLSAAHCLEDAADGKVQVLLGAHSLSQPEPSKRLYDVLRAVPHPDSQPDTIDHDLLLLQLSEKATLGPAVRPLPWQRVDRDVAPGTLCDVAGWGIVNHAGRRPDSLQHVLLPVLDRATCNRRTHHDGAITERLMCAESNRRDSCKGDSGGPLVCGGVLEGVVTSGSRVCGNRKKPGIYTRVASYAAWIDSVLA
- assay.comment: Factor D Assay: Human factor D (purified from human serum, Complement Technology, Inc.) at 80 nM final concentration is incubated with test compound at various concentrations for 5 minutes at room temperature in 50 mM Tris, 1M NaCl, pH 7.5. A synthetic substrate Z-L-Lys-SBz1 and DTNB (Ellman's reagent) are added to final concentrations of 100 μM each. The increase in color is recorded at OD405 nm in a microplate in kinetic mode over 30 minutes with 30 second time points in a spectrofluorimeter. IC50 values are calculated by non-linear regression from the percentage of inhibition of complement factor D activity as a function of test compound concentration.
quantity.measured: IC50

Enquiry: # query: IC50 of entry CC(=O)c1cn(CC(=O)N2C[C@H](F)C[C@H]2C(=O)Nc2cccc(Br)n2)c2ccc(Nc3cncc(F)c3)cc12
Return: < 1 µM
